Where do these numbers come from? They come from patent US20220356245A1.

# target-or-system: T1, hu-sCD47-6His; extracellular domain of human CD47 antigen with 6His-tag (human)
# T1 construct: also called hCD47-his; soluble hCD47
# test-protocol: SPR Biacore;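 also: antibodies captured on anti-IgG CM5 chip, soluble His-tagged human CD47 flowed over at rising concentrations, five 10 min injections, flow cell 1 as reference, 1:1 model fit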
quantity-measured: kon (M⁻¹ s⁻¹)
Output spec: scalar in M⁻¹ s⁻¹, unitless text.

IN: Identify kon associated with the binder h20-VH4-VL5 (candidate 20.20) (antibody, human IgG4 S228P, kappa, V domains shown, hIgG4-S228P/kappa; also called h20-H4-L5) VH: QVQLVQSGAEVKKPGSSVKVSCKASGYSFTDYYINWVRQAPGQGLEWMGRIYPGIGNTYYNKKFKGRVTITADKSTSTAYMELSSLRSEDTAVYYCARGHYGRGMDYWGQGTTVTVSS VL: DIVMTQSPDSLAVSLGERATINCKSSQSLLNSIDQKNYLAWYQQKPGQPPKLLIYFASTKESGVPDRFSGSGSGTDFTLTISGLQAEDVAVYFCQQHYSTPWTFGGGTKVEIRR
OUT: 192000
